Origin of the recorded values: paper PMC5625157

assay: Phase 1 crossover drug-drug interaction study, plasma pharmacokinetics by HPLC-MS/MS, non-compartmental analysis; details: human, in vivo, T max, Reference: R/F/TAF (N = 42); median (first quartile, third quartile)
reported-metric: Tmax

compound	observed-value
CC(C)OC(=O)[C@H](C)N[P@](=O)(CO[C@H](C)Cn1cnc2c(N)ncnc21)Oc1ccccc1 [TAF, tenofovir alafenamide]	1.5 h

---

test: Phase 1 crossover drug-drug interaction study, plasma pharmacokinetics by HPLC-MS/MS, non-compartmental analysis; settings: human, plasma, oral, t 1/2, Test: LDV/SOF + R/F/TAF (N = 42); median (first quartile, third quartile)
Each record here notes measured half-life.

molecule	half-life, h
C[C@H](Cn1cnc2c(N)ncnc21)OCP(=O)(O)O [TFV, tenofovir]	44.5
Cc1cc(/C=C/C#N)cc(C)c1Nc1ccnc(Nc2ccc(C#N)cc2)n1 [RPV, rilpivirine]	30.4
Nc1nc(=O)n([C@@H]2CS[C@H](CO)O2)cc1F [FTC, emtricitabine]	5.1

---

test: Phase 1 crossover drug-drug interaction study, plasma pharmacokinetics by HPLC-MS/MS, non-compartmental analysis; details: human, in vivo, AUClast, Test: LDV/SOF + R/F/TAF (N = 42); plasma; mean (%CV)

compound	AUC(0-t)
CC(C)OC(=O)[C@H](C)N[P@](=O)(CO[C@H](C)Cn1cnc2c(N)ncnc21)Oc1ccccc1 [TAF, tenofovir alafenamide]	362 ng·h/mL

---

assay: clinical; details: human, in vivo, C max, Test: LDV/SOF + R/F/TAF (N = 42); plasma; mean (%CV)
Each record here notes measured Cmax.

given-smiles	Cmax, ng/mL
COC(=O)N[C@H](C(=O)N1CC2(CC2)C[C@H]1c1ncc(-c2ccc3c(c2)C(F)(F)c2cc(-c4ccc5nc([C@@H]6[C@H]7CC[C@H](C7)N6C(=O)[C@@H](NC(=O)OC)C(C)C)[nH]c5c4)ccc2-3)[nH]1)C(C)C	658
CC(C)OC(=O)[C@H](C)N[P@](=O)(OC[C@H]1O[C@@H](n2ccc(=O)[nH]c2=O)[C@](C)(F)[C@@H]1O)Oc1ccccc1	1390

---

experiment: Phase 1 crossover drug-drug interaction study, plasma pharmacokinetics by HPLC-MS/MS, non-compartmental analysis; conditions: human, plasma, oral, T max, Reference: R/F/TAF (N = 42); median (first quartile, third quartile)

given-smiles	Tmax
Nc1nc(=O)n([C@@H]2CS[C@H](CO)O2)cc1F	2.5 h

---

assay: Phase 1 crossover drug-drug interaction study, plasma pharmacokinetics by HPLC-MS/MS, non-compartmental analysis; details: human, plasma, oral, AUCtau, Test: LDV/SOF + R/F/TAF (N = 42); healthy subjects, fed, multiple dose; plasma; mean (%CV)
Each record here notes measured AUC.

given-smiles	AUC
Nc1nc(=O)n([C@@H]2CS[C@H](CO)O2)cc1F	10800 ng·h/mL
Cc1cc(/C=C/C#N)cc(C)c1Nc1ccnc(Nc2ccc(C#N)cc2)n1	2860 ng·h/mL
C[C@H](Cn1cnc2c(N)ncnc21)OCP(=O)(O)O	467 ng·h/mL

---

test: Phase 1 crossover drug-drug interaction study, plasma pharmacokinetics by HPLC-MS/MS, non-compartmental analysis; settings: human, plasma, oral, t 1/2, Reference: R/F/TAF (N = 42); median (first quartile, third quartile);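 note: blood sampled at steady state on final dosing day, predose through 24 h after dose, study drug given shortly after standardized breakfast, with isotopically labeled internal standards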
reported-metric: half-life (h)

compound	units-symbol	observed-value
Nc1nc(=O)n([C@@H]2CS[C@H](CO)O2)cc1F [FTC, emtricitabine]	h	6.5
C[C@H](Cn1cnc2c(N)ncnc21)OCP(=O)(O)O [TFV, tenofovir]	h	32
Cc1cc(/C=C/C#N)cc(C)c1Nc1ccnc(Nc2ccc(C#N)cc2)n1 [RPV, rilpivirine]	h	32.8
